The origin of these recorded values is patent US20260042731A1.

Tested on: Chenopodium album (CHEAL), common lambsquarters
Run description: Postemergence herbicide evaluation, growth of Chenopodium album (CHEAL)
Assay type: in vivo
Measurement parameters: Chenopodium album, post-emergence, 504 h, 280 g ae/ha, 21 DAA, percent reduction in plant size vs untreated control; read-out: Ave. CHEAL
Assay readout: pest or weed control at 280 g/ha (%)

1. CONC(=O)COc1ccc(Cl)cc1Cl [Compound D19] ... 96.5
2. O=C(COc1ccc(Cl)cc1Cl)Nc1ccccn1 [Compound D28] ... 100
3. Cc1nc2ccccc2n1C(=O)COc1ccc(Cl)cc1Cl [Compound D12] ... 90
4. O=C(COc1ccc(Cl)cc1Cl)NOCCc1ccccc1 [Compound D18] ... 92.5
5. O=C(COc1ccc(Cl)cc1Cl)Oc1cccnc1 [Compound E9] ... 90
6. O=C(COc1ccc(Cl)cc1Cl)ONC(=O)C1CCCC1 [Compound A20] ... 95

###

Tested on: Abutilon theophrasti (ABUTH), velvetleaf
Run description: Postemergence herbicide evaluation, growth of Abutilon theophrasti (ABUTH)
Type: in vivo
Measurement parameters: Abutilon theophrasti, post-emergence, 168 h, 280 g ae/ha, 7 DAA, percent reduction in plant size relative to untreated control; read-out: AVE. ABUTH
Assay readout: pest or weed control at 280 g/ha (%)

1) O=C(COc1ccc(Cl)cc1Cl)ON(Cc1ccccc1)Cc1ccccc1 ... 38
2) O=C(COc1ccc(Cl)cc1Cl)NOCc1ccccc1 ... 83
3) O=C(COc1ccc(Cl)cc1Cl)NNC(=O)c1ccccc1 ... 88
4) Cc1cc(OC(=O)COc2ccc(Cl)cc2Cl)n(C)n1 ... 83

###

System: Ambrosia artemisiifolia (AMBEL), common ragweed
Run description: Postemergence herbicide evaluation, growth of Ambrosia artemisiifolia (AMBEL)
Type: in vivo
Measurement parameters: Ambrosia artemisiifolia, post-emergence, 336 h, 280 g ae/ha, 14 DAA; read-out: AVE. AMBEL, percent reduction in plant size relative to the untreated control
Assay readout: pest or weed control at 280 g/ha (%)

1. N/C(=N\OC(=O)COc1ccc(Cl)cc1Cl)c1cccnc1 ... 78
2. O=C(COc1ccc(Cl)cc1Cl)Nc1nccs1 ... 80
3. N/C(=N\OC(=O)COc1ccc(Cl)cc1Cl)c1ccccc1 ... 78
4. CC(C)ONC(=O)COc1ccc(Cl)cc1Cl ... 80

###

Catalogue of pest or weed control at 280 g/ha readings, one per entry.
System: Chenopodium album (CHEAL), common lambsquarters
Run description: Postemergence herbicide evaluation, growth of Chenopodium album (CHEAL)
Format: in vivo
Measurement parameters: Chenopodium album, post-emergence, 168 h, 280 g ae/ha, 7 DAA; read-out: Ave. CHEAL, percent reduction in plant size relative to the untreated control
Assay readout: pest or weed control at 280 g/ha (%)

1. CC(C)ONC(=O)COc1ccc(Cl)cc1Cl [Compound D23] ... 80
2. O=C(COc1ccc(Cl)cc1Cl)O/N=C/c1cccnc1 [Compound A29] ... 82.5
3. O=C(COc1ccc(Cl)cc1Cl)O/N=C1\CCCc2ccccc21 [Compound A25] ... 72.5
4. O=C(COc1ccc(Cl)cc1Cl)Nc1cc[nH]n1 [Compound D21] ... 82.5

###

Tested on: Chenopodium album (CHEAL), common lambsquarters
Run description: Postemergence herbicide evaluation, growth of Chenopodium album (CHEAL)
Assay type: in vivo
Measurement parameters: Chenopodium album, post-emergence, 168 h, 280 g ae/ha, 7 DAA, percent reduction in plant size vs untreated control; read-out: Ave. CHEAL
Assay readout: pest or weed control at 280 g/ha (%)

1. O=C(COc1ccc(Cl)cc1Cl)Oc1ccccn1 ... 77.5
2. O=C(COc1ccc(Cl)cc1Cl)NOCc1ccc(Cl)cc1 ... 80
3. CONC(=O)COc1ccc(Cl)cc1Cl ... 77.5
4. O=C(COc1cc(Cl)cc(Cl)c1)OCCCOC(=O)COc1ccc(Cl)cc1Cl ... 82.5

###

Test system: Chenopodium album (CHEAL), common lambsquarters
Run description: Postemergence herbicide evaluation, growth of Chenopodium album (CHEAL)
Assay type: in vivo
Measurement parameters: Chenopodium album, post-emergence, 168 h, 280 g ae/ha, 7 DAA; read-out: Ave. CHEAL, percent reduction in plant size relative to the untreated control
Assay readout: pest or weed control at 280 g/ha (%)

1) O=C(COc1ccc(Cl)cc1Cl)O/N=C/c1ccccc1 ... 70
2) C/C(=N\OC(=O)COc1ccc(Cl)cc1Cl)c1ccccc1Cl ... 75
3) N/C(=N\OC(=O)COc1ccc(Cl)cc1Cl)c1cccnc1 ... 60
4) C/C(=N\OC(=O)COc1ccc(Cl)cc1Cl)c1ccccc1 ... 70
5) O=C(COc1ccc(Cl)cc1Cl)Nc1ccon1 [Compound D2] ... 70

###

Tested on: weeds (ABUTH, AMATA, AMBEL, CHEAL, ERICA)
Run description: Postemergence herbicide evaluation, overall average % weed control across ABUTH, AMATA, AMBEL, CHEAL, ERICA
Type: in vivo
Measurement parameters: post-emergence, 168 h; 280 g ae/ha, 7 DAA, average over the five weeds; read-out: Overall Ave % Weed Control
Assay readout: pest or weed control at 280 g/ha

1) O=C(COc1ccc(Cl)cc1Cl)ON1CCCCC1 [Compound A11] ... 71%
2) O=C(COc1ccc(Cl)cc1Cl)Nc1ccc(Cl)cc1 [Compound D6] ... 60%
3) CC(=O)/C(C)=N/OC(=O)COc1ccc(Cl)cc1Cl [Compound A8] ... 70%
4) CN(OC(=O)COc1ccc(Cl)cc1Cl)C(=O)c1ccccc1 [Compound A16] ... 70%
5) O=C(COc1ccc(Cl)cc1Cl)ON1C(=O)c2ccccc2C1=O [Compound A15] ... 72%

###

Overview of recorded pest or weed control at 280 g/ha for various compounds
Test system: weeds ABUTH, AMATA, AMBEL, CHEAL, ERICA
Run description: Postemergence herbicide evaluation, overall average % weed control (ABUTH, AMATA, AMBEL, CHEAL, ERICA)
Assay type: in vivo
Measurement parameters: post-emergence, 168 h, 280 g ae/ha, 7 DAA; read-out: Overall Ave % Weed Control
Assay readout: pest or weed control at 280 g/ha (%)

1. C/C(=N\OC(=O)COc1ccc(Cl)cc1Cl)c1cccnc1 [Compound A26] ... 72
2. COc1ncc(OC(=O)COc2ccc(Cl)cc2Cl)cn1 [Compound E12] ... 69.5
3. O=C(COc1ccc(Cl)cc1Cl)O/N=C/c1ccccc1 [Compound A2] ... 71
4. O=C(COc1ccc(Cl)cc1Cl)Nc1cc[nH]n1 [Compound D21] ... 69
5. C[N+](C)(C)CCOC(=O)COc1ccc(Cl)cc1Cl.[Cl-] [Compound E3] ... 71
6. O=C(COc1ccc(Cl)cc1Cl)O/N=C/c1cccnc1 [Compound A29] ... 71.5
7. O=C(COc1ccc(Cl)cc1Cl)Nc1nccs1 [Compound D24] ... 70
8. O=C(COc1ccc(Cl)cc1Cl)Oc1cccnn1 [Compound E2] ... 72
9. O=C(COc1ccc(Cl)cc1Cl)Nc1ccon1 [Compound D2] ... 71

###

Each item that follows carries a reported pest or weed control at 280 g/ha.
Tested on: weeds ABUTH, AMATA, AMBEL, CHEAL, ERICA
Run description: Postemergence herbicide evaluation, overall average % weed control across ABUTH, AMATA, AMBEL, CHEAL and ERICA
Assay type: in vivo
Measurement parameters: post-emergence, 336 h, 280 g ae/ha, 14 DAA, average over five weeds; read-out: Overall Ave % Weed Control
Assay readout: pest or weed control at 280 g/ha (%)

1. O=C(COc1ccc(Cl)cc1Cl)NOC1CCCCO1 (stereo not drawn) ... 89.2
2. O=C(COc1ccc(Cl)cc1Cl)Nc1ccccn1 ... 95.8
3. O=C(COc1ccc(Cl)cc1Cl)NOCc1ccc(Cl)cc1 ... 85.3

###

System: Chenopodium album (CHEAL), common lambsquarters
Run description: Postemergence herbicide evaluation, growth of Chenopodium album (CHEAL)
Assay type: in vivo
Measurement parameters: Chenopodium album, post-emergence, 504 h, 280 g ae/ha, 21 DAA; read-out: Ave. CHEAL, percent reduction in plant size relative to the untreated control
Assay readout: pest or weed control at 280 g/ha (%)

1) O=C(COc1ccc(Cl)cc1Cl)O/N=C/c1cccnc1 ... 91.5
2) O=C(COc1ccc(Cl)cc1Cl)O/N=C/c1ccccn1 ... 97.5
3) O=C(COc1ccc(Cl)cc1Cl)Nc1nccs1 ... 90
4) O=C(COc1ccc(Cl)cc1Cl)O/N=C/c1ccccc1 ... 73
5) C[N+](C)(C)CCOC(=O)COc1ccc(Cl)cc1Cl.[Cl-] ... 80
6) CC(C)CONC(=O)COc1ccc(Cl)cc1Cl ... 97.5
7) O=C(COc1ccc(Cl)cc1Cl)Nc1c(Cl)c(F)nc(F)c1Cl ... 12.5
8) C/C(=N\OC(=O)COc1ccc(Cl)cc1Cl)c1ccccc1 ... 83
